This listing pairs compounds with measured MBC.
system: MRSA-1; experiment: MIC and MBC testing, broth microdilution; type: cell-based, Staphylococcus aureus; conditions: Staphylococcus aureus; MRSA-1; read-out: MBC
Dear colleague, please return just the value in µg/mL, with no unit written.

Hi! What's the reported MBC for [H]/N=C(\N)NN=C1CCCc2cc(OCc3cccc(Br)c3)ccc21 on MRSA-1?
16

Further cases:
What MBC appears in the records for this compound with MRSA-1? [H]/N=C(\N)NN=C1CCCc2cc(OCCCCCCC)ccc21
16

Param item: [H]/N=C(\N)NN=C1CCCc2cc(OCc3ccc(C#N)cc3)ccc21
16

[H]/N=C(\N)NN=C1CCCc2cc(OCCCCCCCCC)ccc21 ?
2

Please do the same for [H]/N=C(\N)NN=C1CCCc2cc(OCc3c(F)cccc3F)ccc21 as well.
32

Same for CC(C)=CCC/C(C)=C/COc1ccc2c(c1)CCC/C2=N\NC(=N)N
16

Now the compound [H]/N=C(\N)NN=C1CCCc2cc(OCc3ccccc3F)ccc21
16

Proceed to [H]/N=C(\N)NN=C1CCCc2cc(OCc3cc(F)cc(F)c3)ccc21
16

Thanks! And [H]/N=C(\N)NN=C1CCCc2cc(OCc3cc(F)ccc3F)ccc21 ?
32
